# Target Desc: BACE1 (Homo sapiens, UniProt P56817)
# Sequence (P56817 46-501): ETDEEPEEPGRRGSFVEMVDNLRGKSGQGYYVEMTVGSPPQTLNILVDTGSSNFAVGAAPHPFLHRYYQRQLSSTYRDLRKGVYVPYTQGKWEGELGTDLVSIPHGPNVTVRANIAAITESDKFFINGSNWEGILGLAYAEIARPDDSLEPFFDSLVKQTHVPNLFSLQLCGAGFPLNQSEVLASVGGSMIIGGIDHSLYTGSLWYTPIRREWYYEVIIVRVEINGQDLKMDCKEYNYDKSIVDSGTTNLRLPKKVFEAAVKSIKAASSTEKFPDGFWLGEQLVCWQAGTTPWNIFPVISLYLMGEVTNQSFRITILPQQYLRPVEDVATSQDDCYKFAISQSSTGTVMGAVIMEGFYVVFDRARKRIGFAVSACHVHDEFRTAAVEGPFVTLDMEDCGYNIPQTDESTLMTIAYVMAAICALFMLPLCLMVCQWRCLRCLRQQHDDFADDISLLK
# Experiment Summary: BACE1 activity assay kit (β-secretase, CS0010), fluorescence
# Settings: read-out: % Residual Activity (at 10 µM) BACE1
Property Measured: remaining activity at 10 µM (%)

Known remaining activity at 10 µM results, listed for orientation:
Molecule	Observed Result
O=C(C=Cc1ccc([N+](=O)[O-])cc1)Nc1ccccc1 [NEA1, 3-(4-Nitrophenyl)-N-phenylacrylamide]	34.9
O=C(C=Cc1ccc([N+](=O)[O-])cc1)Nc1ccc(F)cc1	34.4

I: Cc1ccccc1NC(=O)/C=C/c1ccc([N+](=O)[O-])cc1 [NEA5, 3-(4-Nitrophenyl)-N-(O-tolyl)acrylamide]
II: O=C(C=Cc1ccc([N+](=O)[O-])cc1)Nc1ccc(Cl)cc1
# input Field: lower remaining activity at 10 µM | Options: I / II State your choice using its label.
# output I

The origin of these recorded values is paper PMC8512054.
